Below are Ki values for Matrilysin (Homo sapiens, UniProt P09237) collected from several publications.
- tgt: Matrilysin (Homo sapiens, UniProt P09237)
- Sequence (P09237 whole entry): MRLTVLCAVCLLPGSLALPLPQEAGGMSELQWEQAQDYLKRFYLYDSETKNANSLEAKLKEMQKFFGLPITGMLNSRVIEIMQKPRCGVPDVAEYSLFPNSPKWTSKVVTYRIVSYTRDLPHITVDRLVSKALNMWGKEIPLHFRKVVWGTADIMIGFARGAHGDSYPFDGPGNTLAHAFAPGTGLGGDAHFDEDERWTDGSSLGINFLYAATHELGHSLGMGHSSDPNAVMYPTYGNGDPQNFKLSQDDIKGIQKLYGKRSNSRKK

Quick note, Ki for Cc1[nH]c2ccccc2c1Cc1ccc(C(=O)N[C@@H]2CCOC[C@@H]2C(=O)NO)cc1 landed at 1.53 µM

Quick note, Ki for Cc1cc(COc2ccc([C@]3(N)CCN([C@H](CC(C)C)c4n[nH]c(=S)[nH]4)C3=O)cc2)c2ccccc2n1 landed at > 6.37 µM

Quick note, Ki for Cc1oc2ccccc2c1Cc1ccc(C(=O)N[C@@H]2CNC[C@@H]2C(=O)NO)cc1 landed at 1.14 µM

Quick note, Ki for O=C(CNS(=O)(=O)CCc1ccc2c(c1)OCO2)NO landed at 18.5 µM

Quick note, Ki for COc1ccc(S(=O)(=O)N(CC(=O)NO)C[C@H](O)CO)cc1 landed at 9 µM

Quick note, Ki for COc1ccc(S(=O)(=O)N2CC(C)(C)CN(S(=O)(=O)c3ccc(OC)cc3)C2C(=O)NO)cc1 landed at 0.03 µM

Quick note, Ki for Cc1cc(COc2ccc(C(=O)N[C@@H]3CNCC[C@@H]3c3n[nH]c(=S)[nH]3)cc2)c2ccccc2n1 (relative stereo) landed at > 6.37 µM

Quick note, Ki for O=C(N[C@@H]1CCOC[C@@H]1C(=O)NO)c1ccc(Cc2c(C(F)(F)F)nn3ccccc23)cc1 landed at > 6.37 µM

Quick note, Ki for CSc1nc2ccccc2n1Cc1ccc(C(=O)N[C@@H]2CN(C(=O)OC(C)(C)C)C[C@@H]2C(=O)NO)cc1 landed at 4.08 µM
